# Test system: Mus musculus
# assay method text: Anticonvulsant activity in mouse maximal metrazole seizure test 1 hr following p.o. administration.
# Type: functional
# experimental conditions: po
endpoint name: ED50

Return reported ED50; argument: CCCC/N=C(\Nc1nnc(-c2ccccc2-c2ccccc2)s1)C(C)C
> 100 mg/kg

So what's the measured ED50 for this one? CCCC/N=C(/Cc1ccccc1)Nc1nnc(-c2ccccc2C(F)(F)F)s1
> 100 mg/kg

May I ask what ED50 has been recorded for CCCC/N=C(/C)Nc1nnc(-c2ccccc2C)s1 ?
46 mg/kg

Please give the measured ED50 for this molecule: CCCC(=N)Nc1nnc(-c2ccccc2C(F)(F)F)s1
60 mg/kg

# query: ED50 of entry Cc1ccccc1-c1nnc(C2=NCCN2)s1
> 200 mg/kg

Quick check: ED50 of N=C(Cc1ccccc1)Nc1nnc(Cc2ccccc2)s1 ?
45 mg/kg

Attribution: ChEMBL document CHEMBL1123965
